Provide the reported Ki of each item.
# target entity: 5-hydroxytryptamine receptor 2A (Homo sapiens)
# Sequence (P28223 whole entry): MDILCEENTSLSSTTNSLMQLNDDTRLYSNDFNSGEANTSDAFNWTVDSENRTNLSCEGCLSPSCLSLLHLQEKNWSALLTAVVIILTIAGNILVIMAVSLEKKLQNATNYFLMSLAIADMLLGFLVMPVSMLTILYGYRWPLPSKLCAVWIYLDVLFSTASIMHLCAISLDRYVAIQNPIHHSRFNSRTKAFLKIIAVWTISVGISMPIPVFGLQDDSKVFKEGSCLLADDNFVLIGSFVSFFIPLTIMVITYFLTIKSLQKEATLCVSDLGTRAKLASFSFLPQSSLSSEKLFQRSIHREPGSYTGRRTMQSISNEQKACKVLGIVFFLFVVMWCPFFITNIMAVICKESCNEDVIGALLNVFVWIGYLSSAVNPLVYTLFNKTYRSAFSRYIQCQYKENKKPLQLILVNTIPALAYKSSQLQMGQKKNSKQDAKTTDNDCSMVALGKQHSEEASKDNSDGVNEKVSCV
# method notes: Displacement of [3H]methylspiperone form human cloned 5HT2A receptor expressed in african green monkey COS7 cells by scintillation spectroscopy
# Format: cell-based, COS-7
Give bare numbers, in nM.

- CC/N=C1\N(C)C(=O)/C(=C\c2c[nH]c3ccccc23)N1C: 1700

Answer with reported Ki of `CN1C(=N)N(C)/C(=C/c2c[nH]c3cc(Br)ccc23)C1=O` 2000

###

Please respond with reported selectivity ratio for every item in the list.
# method notes: Selectivity index, ratio of IC50 for african green monkey (Cercopithecus aethiops) Vero cells to IC50 for Plasmodium falciparum D6
# Type: toxicity, cell-based
# assay setup: read-out: Selectivity Index

Example entries begin here.
• C/N=C1\NC(=O)/C(=C\c2c[nH]c3ccccc23)N1C = > 4.9
• CN1C(=N)N(C)/C(=C/c2c[nH]c3cc(Br)ccc23)C1=O = > 14
• O=C1C(=O)c2[nH]cc3c2C(=C1Br)NCC3 = > 5.1
• C[C@H]1CC[C@H]2C(C)(C)CCC[C@]23Oc2ccc(OC(=S)N(C)C)cc2C[C@]13C = > 55
• C[C@H]1CC[C@H]2C(C)(C)CCC[C@]23Oc2ccc(O)c(Cl)c2C[C@]13C = > 1.4

Now take the following molecule into account.
Find the measured selectivity ratio of `CN1C(=N)N/C(=C/c2c[nH]c3cc(Br)ccc23)C1=O` and report it. > 4.3
